system: MDA-MB-231 breast; experiment: NCI tumour cell line growth inhibition, 48 h
# TGI values compiled below

CN(C)CCNCCN :: > 100 µM
C[C@@H]1S[C@H](c2ccccc2F)N2Cc3ccccc3N=C12 :: > 100 µM

Let us examine a further case.
Entry COc1ccc(-c2nc(-c3cc(OC)cc(OC)c3)[nH]c2-c2ccc(OC)cc2)cc1 ; TGI = > 100 µM

---

tested on: MDA-MB-231 breast; assay: NCI tumour cell line growth inhibition, 48 h
Where a SMILES comes first, the peptide text is derived from it. Bridges are numbered along the chain shown (N, C = ends). [ ]: non-standard residue; d: D form. The star is where a group is joined. ξ: configuration not given here. X26 = O=C(/C=C/C=C/C=C/C=C/C=C/C(=O)*)NC1=C(O)CCC1=O; NMeA = CN[C@@H](C)C(=O)O; ξF = NC(Cc1ccccc1)C(=O)O; ξA = CC(N)C(=O)O
Result Type: TGI

Cc1cc(N/N=C/c2ccccn2)nc2ccccc12 :: 14.3 µM
COc1cc2c(cc1O)CCN[C@]21CS[C@@H]2c3c(OC(C)=O)c(C)c4c(c3[C@H](COC1=O)N1[C@@H]2[C@H]2c3c(cc(C)c(OC)c3O)C[C@@H]([C@@H]1O)N2C)OCO4 :: 0.0199 µM
CC1NC(=O)[C@H](C)N(C)C(=O)[C@@H]2CCCN2C(=O)[C@@H](NC(=O)C(Cc2ccccc2)NC(=O)/C=C/C=C/C=C/C=C/C=C/C(=O)NC2=C(O)CCC2=O)COC(=O)[C@@H]2CCCN2C1=O (stereo partly drawn) (X26-[ξF]SP[NMeA][ξA]P; ester 2-C) :: > 100 µM
CCC(C)(O)c1cnc(CC(C)C)c(=O)n1O (stereo not drawn) :: > 100 µM
COc1ccc(-c2cnnn2-c2nonc2-n2cccc2)cc1 :: > 25 µM

The recorded TGI with MDA-MB-231 breast for CC(O)CCCOC(c1ccccc1)(c1ccccc1)c1ccccc1 (stereo not drawn) was 33.3 µM

The recorded TGI with MDA-MB-231 breast for COC(=O)c1cc2c(cc1CC1Cc3cc4c(cc3C1)CCC4)CCC2 was > 100 µM

The recorded TGI with MDA-MB-231 breast for C#CCOc1cccc(Nc2ncnc3c(NC(=O)C=C)cccc23)c1 was > 100 µM

---

system: TK-10 renal; experiment: NCI tumour cell line growth inhibition, 48 h; in the data active = GI50 below about 0.43 µM; inactive = the rest
Form entry, call: pick from y = active, n = inactive

// known answers, use as guide
N#CCCN1C/C(=C/c2ccc(Br)cc2)C(=O)/C(=C/c2ccc(Br)cc2)C1 :: n
COc1cc2c(Nc3cc(Cl)c(OC)c(Cl)c3)c(C#N)cnc2cc1OCCCN1CCN(C)CC1 :: y
COc1ccc(-c2cnnn2-c2nonc2-n2cccc2)cc1 :: n

[in] Hi, do you know how N=C(N)c1ccc(-c2ccc(-c3cccs3)s2)cc1 came out in this test?
[out] n

[in] Hi, do you know how O=C1c2ccccc2-c2c1c1ccccc1c(=O)n2CCN1CCNCC1 came out in this test?
[out] n

[in] Hi, do you know how NNCCc1ccc(NC(=O)CCCc2ccc(C(=O)Nc3ccccc3N)cc2)cc1 came out in this test?
[out] n

[in] Hi, do you know how O=C1Nc2ccccc2/C1=C1\CCc2cc(O)ccc21 came out in this test?
[out] n

[in] Hi, do you know how O=C(/C(=C\c1c(-c2ccccc2)[nH]c2ccccc12)S(=O)(=O)c1ccccc1)c1ccccc1 came out in this test?
[out] n

[in] Hi, do you know how COc1cc2c(/C=N\N=C(N)N)c[nH]c2cc1C came out in this test?
[out] n

---

# TGI values compiled below
tested on: NCI/ADR-RES ovarian; assay: NCI tumour cell line growth inhibition, 48 h

CSc1c(C#N)c(N)n(-c2ccc(C)cc2)c(=O)c1C#N :: > 100 µM

Entry CCOC(=O)c1c(-c2ccccc2)c(-c2ccccc2)cn1C ; TGI = > 10 µM

Entry O=C(/C(=C\c1c(-c2ccccc2)[nH]c2ccccc12)S(=O)(=O)c1ccccc1)c1ccccc1 ; TGI = > 100 µM

Entry CC1CC(O)C(=O)C(O[C@@H]2C[C@@H]3CC[C@@H]4[C@H](CC[C@]5(C)C(C6=CC(=O)OC6)CC[C@]45O)[C@@]3(C=O)C[C@H]2O)O1 (some centres undefined) ; TGI = 0.0678 µM

---

tested on: SK-MEL-5 melanoma; assay: NCI tumour cell line growth inhibition, 48 h
Result Type: TGI (µM)
Express it in µM; write the number only.

CC1CC(O)C(=O)C(O[C@@H]2C[C@@H]3CC[C@@H]4[C@H](CC[C@]5(C)C(C6=CC(=O)OC6)CC[C@]45O)[C@@]3(C=O)C[C@H]2O)O1 (stereo not given in full) :: 0.0174
COc1cc(/C=C2\[C@H]3c4c(c(OC)c(C)c(OC)c4OC)CC(C(=O)N2Cc2ccccc2)N3C)c(OC)c(C)c1OC :: 33
Nc1cc2c(cc1Br)[nH]c(=O)c1ccccc12 :: 2.79
Cc1ccc([N+](=O)[O-])cc1N=NC(=O)NNc1cc([N+](=O)[O-])ccc1C :: 34.9

Let us examine a further case.
The recorded TGI with SK-MEL-5 melanoma for ClCCN(CCCl)c1ccc(CNc2ccccc2)cc1 was 34.4

---

# GI50 values compiled below
system: SNB-19 CNS; assay: NCI tumour cell line growth inhibition, 48 h

Some solved cases for reference:
COc1ccc(/C(C)=C(\c2ccc(OCCN3CCCCCC3)cc2)c2ccc(OC(=O)C3CCCCC3)cc2)cc1 :: 2.45 µM
CCCCCCCCCCNC(=O)CI :: 11.2 µM
CCc1ccc2c(c1)C(=O)c1c-2n(CCCN=[N+]=[N-])c(=O)c2cc([N+](=O)[O-])ccc12 :: > 50 µM
Nc1cc(Br)c(-c2nnc(CCC(=O)c3nc4ccccc4[nH]3)o2)c(Br)c1 :: 20.1 µM
COc1ccc(-c2nccn2-c2ccc(OC)cc2)cc1 :: 41.8 µM
C=CC(=O)N1CN(C(=O)C=C)CN(C(=O)C=C)C1 :: 33.1 µM

Entry Cc1cc(N/N=C/c2ccccn2)nc2ccccc12 ; GI50 = 0.535 µM

Entry CCN(CC)CCCCCCNc1cccc2cc(Br)cnc12 ; GI50 = 5.77 µM

Entry O=C(NCc1ccc(Cn2c(=O)sn(-c3ccccc3)c2=O)cc1)OCc1ccc2cccc(O)c2n1 ; GI50 = 1.49 µM

Entry CC(C)(C)[Si](C)(C)OC1[C@@H](CNC(=O)NC(=O)CCl)O[C@@H](n2cnc3c(N)ncnc32)[C@H]1O[Si](C)(C)C(C)(C)C (stereo partly specified) ; GI50 = 2.43 µM

Entry O=C(Nc1cc(Nc2ncccc2-c2ncnc3nc[nH]c23)ccc1F)c1cc(C(F)(F)F)cc(C(F)(F)F)c1 ; GI50 = 3.78 µM

---

# TGI values compiled below
test system: NCI-H226 lung; experiment: NCI tumour cell line growth inhibition, 48 h

CC(C)(C)OC(=O)NCCC(N)=S :: > 100 µM
O=C(/C(=C\c1c(-c2ccccc2)[nH]c2ccccc12)S(=O)(=O)c1ccccc1)c1ccccc1 :: > 100 µM

Entry COC(=O)/C(=N/O)C(C(=O)C=C(C)C)C(=O)C(=O)Nc1nc2ccc([N+](=O)[O-])cc2s1 (stereo not drawn) ; TGI = 72.1 µM

---

# TGI values compiled below
system: SR leukemia; assay: NCI tumour cell line growth inhibition, 48 h

Some solved cases for reference:
CC12CCC3C(CCC4CC(OC(=O)Cc5ccc(N(CCCl)CCCl)cc5)CCC43C)C1CCC(=O)N2 (stereo not given) :: 16.8 µM
ClC(Cl)=C1C(=C(Cl)Cl)C(Cl)(Cl)C1(Cl)Cl :: 3.46 µM
COc1c(C)n(CCO)ccc1=O :: > 100 µM

Entry ClCCN(CCCl)c1ccc(CNc2ccccc2)cc1 ; TGI = > 100 µM

---

tested on: MDA-MB-435; experiment: NCI tumour cell line growth inhibition, 48 h
# TGI values compiled below

O=C(O)c1cc(-c2ccc3c(O)c(O)ccc3c2)ccc1O :: > 75 µM
Nc1cc(Br)c(-c2nnc(CCC(=O)c3nc4ccccc4[nH]3)o2)c(Br)c1 :: 3.71 µM
COc1ccc(-c2nn(-c3cccc(Cl)c3)cc2-c2cc(-c3ccccc3)[nH]c(=O)c2C#N)cc1 :: > 50 µM

Entry NC(CC1=CS(=O)(=O)c2ccc(Cl)cc21)C(=O)O (stereo unspecified) ; TGI = > 100 µM

---

test system: UACC-62 melanoma; experiment: NCI tumour cell line growth inhibition, 48 h
Result Type: TGI

Some solved cases for reference:
O=C(O)c1cc(-c2ccc3c(O)c(O)ccc3c2)ccc1O :: > 75 µM
O=C(Cc1nc2c3c(ccc2[nH]c1=O)C(=O)c1ccccc1C3=O)C(=O)Nc1ccccc1[N+](=O)[O-] :: 59 µM
Nc1ccccc1O.O.O=C(O)C1[O][Sb][O]C1C(=O)O (stereo unspecified) :: 30.3 µM
CCN1CCCC(NCc2c3ccccc3c(CNC3CCCN(CC)C3)c3ccccc23)C1 (stereo unspecified) :: 26.8 µM
COc1ccc(C(CC(=O)c2ccc3c(c2)OCO3)c2c(O)c3ccccc3oc2=O)cc1OC (stereo unspecified) :: > 100 µM

Let us examine a further case.
Entry Cc1cccc(C2=C/C(=C(\SS/C(C(=O)c3ccc(OCC(=O)O)c(Cl)c3Cl)=C3\C=C(c4cccc(C)c4)SS3)C(=O)c3ccc(OCC(=O)O)c(Cl)c3Cl)SS2)c1 ; TGI = 38.5 µM
